Entry source: patent US12195428B2

test_target: NaV1.7 (Homo sapiens, UniProt Q15858)
Construct: expressed in transfected cells; host or cells: unnamed tetracycline-inducible cell line, kept under hygromycin and blasticidin selection
Sequence (Q15858 whole entry): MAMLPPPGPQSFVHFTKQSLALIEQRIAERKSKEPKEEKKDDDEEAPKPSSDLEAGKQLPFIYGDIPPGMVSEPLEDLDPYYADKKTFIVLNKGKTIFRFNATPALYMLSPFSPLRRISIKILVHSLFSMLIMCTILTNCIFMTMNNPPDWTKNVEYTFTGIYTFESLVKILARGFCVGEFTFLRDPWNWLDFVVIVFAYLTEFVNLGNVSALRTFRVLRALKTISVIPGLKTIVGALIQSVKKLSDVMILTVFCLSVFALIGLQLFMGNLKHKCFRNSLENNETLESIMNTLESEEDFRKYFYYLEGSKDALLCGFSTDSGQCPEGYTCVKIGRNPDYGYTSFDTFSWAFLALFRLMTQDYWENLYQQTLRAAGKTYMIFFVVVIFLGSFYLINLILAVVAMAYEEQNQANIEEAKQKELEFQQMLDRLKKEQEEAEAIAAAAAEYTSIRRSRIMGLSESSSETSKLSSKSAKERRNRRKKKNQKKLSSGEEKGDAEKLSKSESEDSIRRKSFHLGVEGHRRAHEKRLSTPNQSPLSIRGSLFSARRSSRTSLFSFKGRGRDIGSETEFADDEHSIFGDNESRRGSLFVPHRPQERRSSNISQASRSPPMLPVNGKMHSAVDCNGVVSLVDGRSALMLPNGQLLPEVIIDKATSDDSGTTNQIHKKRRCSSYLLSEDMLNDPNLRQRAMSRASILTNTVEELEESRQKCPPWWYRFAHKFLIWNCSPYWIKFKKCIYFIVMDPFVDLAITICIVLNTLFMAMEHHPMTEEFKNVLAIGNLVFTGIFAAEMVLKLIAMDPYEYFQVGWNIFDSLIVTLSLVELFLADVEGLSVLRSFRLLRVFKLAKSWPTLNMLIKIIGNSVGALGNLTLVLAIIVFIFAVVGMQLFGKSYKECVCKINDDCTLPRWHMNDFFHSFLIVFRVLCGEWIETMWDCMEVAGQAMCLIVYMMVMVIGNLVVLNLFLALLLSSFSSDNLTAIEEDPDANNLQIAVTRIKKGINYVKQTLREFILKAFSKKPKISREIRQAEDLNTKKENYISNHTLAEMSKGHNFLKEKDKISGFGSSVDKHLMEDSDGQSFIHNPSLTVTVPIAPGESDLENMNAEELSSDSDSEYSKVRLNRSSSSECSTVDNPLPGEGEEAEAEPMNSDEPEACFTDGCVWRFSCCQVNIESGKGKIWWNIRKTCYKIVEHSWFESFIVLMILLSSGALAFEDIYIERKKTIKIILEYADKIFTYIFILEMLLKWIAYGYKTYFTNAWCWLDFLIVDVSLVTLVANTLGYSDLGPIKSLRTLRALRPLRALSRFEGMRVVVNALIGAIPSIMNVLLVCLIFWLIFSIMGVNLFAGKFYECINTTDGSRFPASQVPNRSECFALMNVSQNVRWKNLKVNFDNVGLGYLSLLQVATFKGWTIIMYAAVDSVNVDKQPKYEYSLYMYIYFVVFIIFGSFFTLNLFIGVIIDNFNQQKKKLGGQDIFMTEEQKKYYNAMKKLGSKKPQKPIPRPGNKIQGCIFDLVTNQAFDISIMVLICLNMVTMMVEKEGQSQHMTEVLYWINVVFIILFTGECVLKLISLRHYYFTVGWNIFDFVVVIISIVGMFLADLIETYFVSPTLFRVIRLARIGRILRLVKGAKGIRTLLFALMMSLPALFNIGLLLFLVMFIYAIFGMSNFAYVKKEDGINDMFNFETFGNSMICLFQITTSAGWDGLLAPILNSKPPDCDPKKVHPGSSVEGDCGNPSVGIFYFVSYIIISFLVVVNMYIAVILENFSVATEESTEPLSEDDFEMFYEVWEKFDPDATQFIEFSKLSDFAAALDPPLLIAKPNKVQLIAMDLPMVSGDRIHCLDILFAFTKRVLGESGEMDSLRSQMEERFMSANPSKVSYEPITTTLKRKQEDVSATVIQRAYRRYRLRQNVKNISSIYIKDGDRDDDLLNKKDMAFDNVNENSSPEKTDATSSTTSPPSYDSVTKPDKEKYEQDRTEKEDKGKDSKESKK
assay_method_text: Nav1.7 intracellular inhibition (internal block), whole cell patch clamp
Assay type: cell-based
condition: % inhibition at 1 μM test concentration, compound in internal solution, 5 Hz stimulation
Entries and their inhibition at 1 µM

Cc1cccc(C)c1NC(=O)C[N+]1(C)CCCC(c2ccccc2)C1.[I-] (centres unmarked) [Compound 4A] : 70 to 90%
CCC[N+]1(CC(=O)Nc2c(C)cccc2C)CCCC(c2ccccc2)C1 (centres unmarked) [Compound 6A] : > 90%
COC(=O)C[N+]1(CC(=O)Nc2c(C)cccc2C)CCCCC1c1ccccc1 (centres unmarked) [Compound 9A] : 30 to 70%
Cc1cccc(C)c1NC(=O)C[N+]1(C)CCCCC1c1ccccc1.[I-] (centres unmarked) [Compound 8A] : 30 to 70%

As a next step, examine the molecule that follows.
Value of measured inhibition at 1 µM for the entry CCC[N+]1(CC(=O)Nc2c(C)cccc2C)CCCCC1c1ccccc1 (centres unmarked) [Compound 10A] : 30 to 70%
